Parameter: kon. Scope: all listed entries.
Molecular target: T1, mouse programmed cell death protein 1 Fc fusion protein (mPD-1-Fc), mPD-1 C60S (aa 25-167) (Mus musculus, UniProt Q02242, stabilised)
T1 construct: not cleaved; source: Expi293F, purified (Protein A, SEC; dimeric fraction); not shown: Fc (human), C-terminal, kept
Assay: SPR; Carterra LSA; Fab from the ammonium sulfate precipitate of the culture supernatant immobilised on a NiHC200M chip; hPD-1 (1-1024 nM) or mPD-1-Fc (4-1024 nM) as analyte, fourfold dilution series, no regeneration; HBS-EP pH 7.4, 25 °C; medians over the spots of a construct, KD = koff/kon
Conditions: one partner purified

binder | kon
toripalimab Fab L.P100K (Fab, V domains shown, as the heavy chain of Sm3; light chain of Sm3 with this change; numbers count from the chain's first residue; source: Brevibacillus, culture supernatant (ammonium sulfate precipitate); not shown: 6xHis, C-terminal, kept; 6xHN, C-terminal, kept) VH: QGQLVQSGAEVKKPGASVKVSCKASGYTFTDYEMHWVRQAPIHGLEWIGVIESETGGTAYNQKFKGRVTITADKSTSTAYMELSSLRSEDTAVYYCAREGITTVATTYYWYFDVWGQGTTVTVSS VL: DVVMTQSPLSLPVTLGQPASISCRSSQSIVHSNGNTYLEWYLQKPGQSPQLLIYKVSNRFSGVPDRFSGSGSGTDFTLKISRVEAEDVGVYYCFQGSHVKLTFGQGTKLEIK | 13600 M⁻¹ s⁻¹
toripalimab Fab L.L101I (Fab, V domains shown, as the heavy chain of Sm3; light chain of Sm3 with this change; numbers count from the chain's first residue; source: Brevibacillus, culture supernatant (ammonium sulfate precipitate); not shown: 6xHis, C-terminal, kept; 6xHN, C-terminal, kept) VH: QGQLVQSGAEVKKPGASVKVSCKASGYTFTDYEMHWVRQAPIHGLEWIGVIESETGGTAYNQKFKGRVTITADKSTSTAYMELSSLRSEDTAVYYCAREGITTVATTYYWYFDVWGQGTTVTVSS VL: DVVMTQSPLSLPVTLGQPASISCRSSQSIVHSNGNTYLEWYLQKPGQSPQLLIYKVSNRFSGVPDRFSGSGSGTDFTLKISRVEAEDVGVYYCFQGSHVPITFGQGTKLEIK | 16300 M⁻¹ s⁻¹

Let us move to another entry and its kon.
Task: What measured kon goes with toripalimab Fab L.V99S (Fab, V domains shown, as the heavy chain of Sm3; light chain of Sm3 with this change; numbers count from the chain's first residue; source: Brevibacillus, culture supernatant (ammonium sulfate precipitate); not shown: 6xHis, C-terminal, kept; 6xHN, C-terminal, kept) VH: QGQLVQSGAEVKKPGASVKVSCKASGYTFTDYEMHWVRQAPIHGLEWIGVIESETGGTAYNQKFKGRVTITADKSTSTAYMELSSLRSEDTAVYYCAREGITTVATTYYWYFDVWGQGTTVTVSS VL: DVVMTQSPLSLPVTLGQPASISCRSSQSIVHSNGNTYLEWYLQKPGQSPQLLIYKVSNRFSGVPDRFSGSGSGTDFTLKISRVEAEDVGVYYCFQGSHSPLTFGQGTKLEIK ?
Output: 15400 M⁻¹ s⁻¹
